B1: F1*; the commonest letter at each place (parent)
chain: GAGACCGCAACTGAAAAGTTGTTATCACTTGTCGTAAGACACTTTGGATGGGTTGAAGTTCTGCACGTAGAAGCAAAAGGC

Variants of: B1
Protocol details: fraction ligated after 30 min (ligated reads / total reads); higher = more ligase activity
Experimental parameters: with F1*sub RNA substrate (template-directed ligation), 42 °C
So basically: fraction ligated at 0.8 or higher? That is Condition met. Lower than 0.8? That is Condition not met.

Residue change: A48C G50A
Answer label: Condition not met
--
Residue change: C40A T43A
Answer label: Condition met
--
Residue change: T49A G55C
Answer label: Condition not met
--
Residue change: C40G G47C
Answer label: Condition not met
--
Residue change: C42G G50T
Answer label: Condition not met
--
Residue change: T25G C28G
Answer label: Condition not met
--
Residue change: G31T T49G
Answer label: Condition not met
--
Residue change: T45G
Answer label: Condition not met
--
Residue change: T43C A48T
Answer label: Condition not met
--
Residue change: A24C G38C
Answer label: Condition not met
--
Residue change: C40G A56G
Answer label: Condition not met
--
Residue change: C33A T44C
Answer label: Condition met
--
Residue change: A24G G46C
Answer label: Condition not met
--
Residue change: T23A T35A
Answer label: Condition met
--
Residue change: G38C C42G
Answer label: Condition met
--
Residue change: G38A G55A
Answer label: Condition met
--
Residue change: A39G C40T
Answer label: Condition met
--
Residue change: G31T T44G
Answer label: Condition not met
--
Residue change: G38A A48C
Answer label: Condition not met
--
Residue change: T29C G50A
Answer label: Condition not met
--
Residue change: G55C A57C
Answer label: Condition not met
--
Residue change: A27T A41C
Answer label: Condition not met
--
Residue change: G46T G47T
Answer label: Condition not met
--
Residue change: T25C G46T
Answer label: Condition not met
--
Residue change: T23C C28A
Answer label: Condition not met
--
Residue change: T30C G55T
Answer label: Condition not met
--
Residue change: T29G C33G
Answer label: Condition met
--
Residue change: G34T G55A
Answer label: Condition met
--
Residue change: C40T C42T
Answer label: Condition met
--
Residue change: A24G C26T
Answer label: Condition not met
--
Residue change: A24C T32A
Answer label: Condition not met
--
Residue change: T30G A48C
Answer label: Condition not met
--
Residue change: A39T A57G
Answer label: Condition met
--
Residue change: G38C T45A
Answer label: Condition not met
--
Residue change: G38C A48G
Answer label: Condition not met
--
Residue change: A24C A37T
Answer label: Condition not met
--
Residue change: T30C G31C T32G C33G G38C A39C C40G A41G
Answer label: Condition met
--
Residue change: T25C A37C
Answer label: Condition not met
--
Residue change: A24G G47C
Answer label: Condition not met
--
Residue change: A41G G47A
Answer label: Condition not met
--
Residue change: A48C G55A
Answer label: Condition not met
--
Residue change: T30A T35A
Answer label: Condition met
--
Residue change: A27T T44G
Answer label: Condition met
--
Residue change: A48T G50A
Answer label: Condition not met
--
Residue change: A41G A48G
Answer label: Condition not met
--
Residue change: T32A C42G
Answer label: Condition met
--
Residue change: C33G A57T
Answer label: Condition met
--
Residue change: T32G G50C
Answer label: Condition not met
--
Residue change: C26G G55C
Answer label: Condition not met
--
Residue change: T25G A41T
Answer label: Condition not met
--
Residue change: T43G A56C
Answer label: Condition not met

Provenance of the data: the supplement of paper PMC6755084
